# assay-notes: Antibiotic concentrations in porcine oral fluid after intramuscular application (UHPLC-MS/MS)
# Format: in vivo
# condition-set: pigs, i.m., conclusion in words
# Description: All animals were born in the sow farm (8000 DanBred sows) located in Northern Poland, after crossing ♀(♂Landrace × ♀Yorskshire) × ♂Duroc. Piglets were weaned after 4 weeks of lactation with an average weight of 6 kg and then moved to the weaner stable (23,000 weaners). […] Before the analysis, the oral fluid samples were centrifuged at 9447× rcf. […] For the extraction of analysed antibiotics, 600 µL of 0.5% formic acid was added, vortexed for 30 s and centrifuged for 10 min at 9447× rcf. […]
assay-metric: distribution to oral fluid

Would you please look over these solved cases?
smiles-repr	distribution to oral fluid
COc1cc(Cc2cnc(N)nc2N)cc(OC)c1OC	high distribution
CC[C@H]1OC(=O)C[C@@H](O)[C@H](C)[C@@H](O[C@@H]2O[C@H](C)[C@@H](O[C@H]3C[C@@](C)(O)[C@@H](O)[C@H](C)O3)[C@H](N(C)C)[C@H]2O)[C@@H](CC=O)C[C@@H](C)C(=O)/C=C/C(C)=C/[C@@H]1CO[C@@H]1O[C@H](C)[C@@H](O)[C@@H](OC)[C@H]1OC	high distribution
COc1ncnc(NS(=O)(=O)c2ccc(N)cc2)c1OC	high distribution
C=C[C@]1(C)C[C@@H](OC(=O)CSCCN(CC)CC)[C@]2(C)[C@H](C)CC[C@]3(CCC(=O)[C@H]32)[C@@H](C)[C@@H]1O	high distribution

Then there is this compound:
*Q* Any idea what its distribution to oral fluid is? The compound is CCC[C@@H]1C[C@@H](C(=O)N[C@@H]([C@H]2O[C@H](SC)[C@H](O)[C@@H](O)[C@H]2O)[C@@H](C)O)N(C)C1
*A* high distribution

====

# assay-notes: Antibiotic concentrations in porcine oral fluid after intramuscular application (UHPLC-MS/MS)
# Format: in vivo
# condition-set: male, (Landrace × Yorkshire) × Duroc crossbred (DanBred sows), pig, intramuscular; oral fluid, pigs, i.m., time 27 d, posttreatment; read-out: Avarage Concentrations in oral fluid
assay-metric: concentration at 27 d (ng/mL)

molecule	unit-descriptor	concentration at 27 d
CC[C@H]1OC(=O)C[C@@H](O)[C@H](C)[C@@H](O[C@@H]2O[C@H](C)[C@@H](O[C@H]3C[C@@](C)(O)[C@@H](O)[C@H](C)O3)[C@H](N(C)C)[C@H]2O)[C@@H](CC=O)C[C@@H](C)C(=O)/C=C/C(C)=C/[C@@H]1CO[C@@H]1O[C@H](C)[C@@H](O)[C@@H](OC)[C@H]1OC [TYL, tylosin]	ng/mL	6.8

1. COc1ncnc(NS(=O)(=O)c2ccc(N)cc2)c1OC [SDX, sulfadoxine]
2. COc1cc(Cc2cnc(N)nc2N)cc(OC)c1OC [TRMP, trimethoprim]
3. CCC[C@@H]1C[C@@H](C(=O)N[C@@H]([C@H]2O[C@H](SC)[C@H](O)[C@@H](O)[C@H]2O)[C@@H](C)O)N(C)C1 [LIN, lincomycin]
4. C=C[C@]1(C)C[C@@H](OC(=O)CSCCN(CC)CC)[C@]2(C)[C@H](C)CC[C@]3(CCC(=O)[C@H]32)[C@@H](C)[C@@H]1O [TIAM, tiamulin]
*Q* Descending sort on concentration at 27 d required. Arrange the labels as the request states and list them.
*A* 3, 4, 1, 2

Reference source for all entries: paper PMC8879095
